The measurements presented in this section are drawn from patent US8841321B2.

Test system: EFA 29212 (Enterococcus faecalis (ATCC29212))
test.summary: Microtitre plate assay, IC90 determination
Type: cell-based
experimental.parameters: Enterococcus faecalis, ATCC29212, Enterococcus faecalis (ATCC29212); read-out: IC90 (μg/ml) EFA 29212
endpoint: IC90 (µg/mL)

# count of solved cases: 2
{"compound": "COc1nc2ccc(-c3ccco3)cc2cc1C(c1ccccc1)C(O)(CCCCN(C)C)c1ccc2ccccc2c1 (stereo not shown)", "IC90 (µg/mL)": 7.2}
{"compound": "COc1ccc2cc(C(O)(CCCCN(C)C)C(c3ccccc3)c3cc4ccccc4nc3OC)ccc2c1 (stereo not shown)", "IC90 (µg/mL)": 8.5}

a. COc1nc2ccc(Br)cc2cc1C(c1ccccc1)C(O)(CCCCN(C)C)c1cc(F)cc(F)c1 (stereo not shown)
b. COc1nc2ccc(Br)cc2cc1C(c1ccccc1)C(O)(CCCCN(C)C)c1cccc2ccccc12 (stereo not shown)
Recorded IC90 values differ for a and b ; which one is higher? Please respond with the label that marks your chosen entry.
b
(b: 14.7 µg/mL, a: 9 µg/mL)
